Give GI50 for every item shown.
Test system: MOLT-4
Assay: NCI60 five-dose screen
Assay type: cell-based
Conditions: Homo sapiens, MOLT-4

Use these answered entries as a reference point.
compound="CC[C@]12C=CCN3CC[C@@]4(c5ccc(OC)cc5N(C)[C@H]4[C@@](O)(C(=O)OC)[C@@H]1OC(=O)CCCC[P+](C1CCCCC1)(C1CCCCC1)C1CCCCC1)[C@@H]32 [10d]" system_tested=MOLT-4 result="1720 nM"
compound="CCC12C=CCN3CCC4(c5ccc(OC)cc5N(C)C4C(O)(C(=O)OC)C1OC(=O)CCC[P+](c1ccc(C)cc1)(c1ccc(C)cc1)c1ccc(C)cc1)C32 (stereo not shown)" system_tested=MOLT-4 result="294 nM"
compound=CC[C@]12C=CCN3CC[C@@]4(c5ccc(OC)cc5N(C)[C@H]4[C@@](O)(C(=O)OC)[C@@H]1OC(=O)CCC[P+](c1ccccc1)(c1ccccc1)c1ccccc1OC)[C@@H]32 system_tested=MOLT-4 result="419 nM"

We next turn to a different compound, shown below.
Memo: `CC[C@]12C=CCN3CC[C@@]4(c5ccc(OC)cc5N(C)[C@H]4[C@@](O)(C(=O)OC)[C@@H]1OC(=O)CCC[P+](c1ccc(F)cc1)(c1ccc(F)cc1)c1ccc(F)cc1)[C@@H]32` , reported GI50: 9690 nM
